# Tested on: S. epidermidis RP62A (ATCC 35984) biofilm formation
# assay_name: Biofilm inhibition assay (WGA488 staining of formed biofilm)
# Type: cell-based, Staphylococcus epidermidis
# condition_set: lowest concentration causing >98% inhibition of biofilm formation; two independent trials in quadruplicates
result_type: MBIC S. epidermidis RP62A (ATCC 35984)

CCCCC/C=C/C(=O)CCCCCCCCCC(=O)O [Compound 3, (E)-11-oxooctadec-12-enoic acid] : 16 µg/mL
CCCCCCCCCCCCCCCCCC(=O)O : >128 µg/mL
CCCCC[C@@H]1O[C@H]1CCCCCCCCCCC(=O)O [Compound 6, trans-12,13-epoxy-octadecanoic acid] : 16 µg/mL
CCCCCCCCCCCCCCCC(=O)O : >128 µg/mL
CCCCCC1OC1C(O)CCCCCCCCCC(=O)O (stereo not drawn) [Compound 1, 11-hydroxy-12,13-epoxy-octadecanoic acid] : 32 µg/mL

We next turn to a different compound, shown below.
Using the record for CCCCC/C=C\CCCCCCCCCCC(=O)O [Compound 7, 12(Z)-octadecenoic acid] , state its measured MBIC S. epidermidis RP62A (ATCC 35984). >128 µg/mL

* * *

# Tested on: S. epidermidis RP62A (ATCC 35984) biofilm formation
# assay_name: Biofilm inhibition assay (WGA488 staining of formed biofilm)
# Type: cell-based, Staphylococcus epidermidis
# condition_set: S. epidermidis RP62A; MIC planktonic / MBIC biofilm
Catalogue of Selectivity Index (MICPlanktonic/MBICBiofilm) readings, one per entry.

Worked set:
CCCCCCCCCCCCCCCCCC(=O)O : ~1
CCCCCCCCCCCCCCCC(=O)O : ~1
CCCCC/C=C/C(=O)CCCCCCCC(=O)O [Compound 2, (E)-9-oxohexadec-10-enoic acid] : ~1
CCCCC[C@@H]1O[C@H]1CCCCCCCCCCC(=O)O [Compound 6, trans-12,13-epoxy-octadecanoic acid] : >8
CCCCC/C=C/C(=O)CCCCCCCCCC(=O)O [Compound 3, (E)-11-oxooctadec-12-enoic acid] : ~1

We next turn to a different molecule, shown below.
Using the record for CCCCCC1OC1C(O)CCCCCCCCCC(=O)O (stereo not drawn) [Compound 1, 11-hydroxy-12,13-epoxy-octadecanoic acid] , state its measured Selectivity Index (MICPlanktonic/MBICBiofilm). ~4
